- Tested on: TK-10 renal
- protocolNotes: NCI-60 one-dose screen, 48 h (100 = growth as untreated, 0 = no growth, -100 = all killed)
- recordedConditions: 10 µM unless noted
- Method: Growth inhibition of the TK-10 human tumor cell line is measured as a screen for anti-cancer activity. Cells are grown in 96 well plates and exposed to the test compound for 48 hours. Compounds are tested at a single concentration, which is 10^-5 M for most compounds. The reported endpoint is percent growth (GI% or GIPRCNT), where numbers from 0 - 100% represent growth inhibition, and numbers from -100% - 0 represent cell death. For example, a value of 40 represents 60% growth inhibition. […]
About 83,000 compounds went through this panel and 20% of them were active in at least one assay; those are over-represented in the sample as a whole.
quantityName: growth (%)

* Cn1c(=O)c2[nH]c(SCC(=O)Nc3ccc(C(=O)/C=C/c4ccccc4Cl)cc3)nc2n(C)c1=O | 104
* C=C1C(=O)O[C@H]2[C@H]1CC/C(COC(=O)/C=C\C(=O)NCc1ccc(Cn3c(=O)sn(CCCCC)c3=O)cc1)=C\CC[C@@]1(C)O[C@@H]21 | 57.4
* CCOC(=O)C1=C(C)/C(=C\c2[nH]c(C)c(C(=O)OCC)c2C)N=C1C | 108
* CN1CCN(Cc2ccc(NC(=O)c3cncc(C#Cc4cnc(N)c5ccc(F)cc45)c3)cc2C(F)(F)F)CC1 | 24.1

* * *

Listed here are compounds together with their documented growth.
- Test system: K-562 leukemia
- protocolNotes: NCI-60 one-dose screen, 48 h (100 = growth as untreated, 0 = no growth, -100 = all killed)
- recordedConditions: 10 µM unless noted
The panel holds about 83,000 compounds, 20% with a hit somewhere; the sample as a whole holds those more often.
quantityName: growth (%)

• COc1ccc(Cn2cc3c(c2-c2ccccc2)CCc2cnoc2-3)cc1 = 13.7
• Cc1[nH]c(C2CC(c3ccc(C(F)(F)F)c(F)c3)=NN2c2ccccc2)c(C)c1C(=O)NCC(F)(F)F (stereo not given) = 76
• CCCCCCCCCCCCCCCCCC1=NC(C)(C)CN1CC(C)O (stereo not given) = -25.7
• O=C(O)COc1ccc(Cl)c(Cl)c1 = 109
• O=C1/C(=C\c2ccccn2)c2ccccc2N1c1c(Cl)cccc1Cl = 9.42
• CN(C)CCCC1(c2ccc(F)cc2)OCc2cc(-c3ccc4cc[nH]c4c3)ccc21 (stereo not given) = -20.1
• C=C1C(=O)O[C@H]2[C@H]1CC/C(Cn1cc(CCC)nn1)=C\CC[C@@]1(C)O[C@@H]21 = 4.94
• Clc1ccc(-c2cc(-c3ccccc3)nc(NCCNc3ccnc4cc(Cl)ccc34)n2)cc1 = 0.266
• N#C/C(=C\C=C\c1ccc(-c2cc(Cl)ccc2Cl)o1)c1nc2ccccc2s1 = 100
• N#CC1=C(N)Oc2ccc3ccccc3c2C1c1ccc([N+](=O)[O-])cc1 (stereo not given) = 77.7

* * *

- Test system: ACHN renal
- protocolNotes: NCI-60 one-dose screen, 48 h (100 = growth as untreated, 0 = no growth, -100 = all killed)
- recordedConditions: 10 µM unless noted
Compounds without any hit were thinned out: in the full panel of roughly 83,000, 20% have a hit.
# growth per entry
quantityName: growth (%)

* COc1cccc(/C=C/C(=O)c2cc3c(N)c(C(=O)Nc4cccc5ccccc45)sc3nc2C)c1 | 35
* O=C(CCCCCCN1CC(=O)N2[C@H](c3ccc(Br)cc3)c3[nH]c4ccccc4c3C[C@@H]2C1=O)NO | 72.3
* Nc1nc(N)c2c(n1)NC(c1ccc(Cl)cc1)C1CCc3ccccc3C1=N2 (centres undefined) | 52.7
* C=C(C)[C@@H]1CC[C@]2(C(=O)N3CCN(C)CC3)CC[C@]3(C)[C@H](CC[C@@H]4[C@@]5(C)CC[C@H](OC(=O)c6ccccc6C(=O)O)C(C)(C)[C@@H]5CC[C@]43C)[C@@H]12 | 100
* O=C(Nc1ncccc1OCc1ccccc1)NC1CCCCCC1 | 93.4
* [2H]C([2H])([2H])Oc1ccc(F)cc1/C=C/C(=O)/C=C(/C=C/c1cc(F)ccc1OC([2H])([2H])[2H])OB(F)F | 54.5
* O=C1Nc2ccccc2/C1=C\c1c[nH]c2ccc(Br)cc12 | 53.6
* O=C1/C(=C2\SC(=S)N(C3CC3)C2=O)SC(=S)N1C1CC1 | 97
* Nc1nc2c(c3ncccc13)C(c1cccc(Cl)c1)Cc1ncccc1-2 (centres undefined) | 45.5

Values compiled from PubChem BioAssay (NCI).
